Taken from the METLIN SMRT retention time set (Domingo-Almenara et al. 2019).

# assay_method_text: gradient 5% acetonitrile 3 min, to 50% in 2 min, to 85% in 15 min, held 3 min, 100 µL/min
# condition_details: column: Zorbax Extend-C18 2.1 x 50 mm; eluents: water / acetonitrile, 0.1% formic acid
quantity_measured: RP-LC retention time (s)
Answers are plain numbers, in s.

Below, each entry is followed by its recorded RP-LC retention time result.
Cc1ccc(-c2nc(NC3CCCCC3C)c3ccccc3n2)cc1 (centres undefined) :: 906
CCOC(=O)c1ccc(NC(=O)Cn2cnc3nc(-c4cccnc4)ncc3c2=O)cc1 :: 686
O=C(O)c1cc(NS(=O)(=O)c2ccccc2C(F)(F)F)cc(C(=O)O)c1 :: 660
COc1ccc(N2C=C(C(=O)N3CCCC3)S(=O)(=O)c3ccccc32)cc1Cl :: 808
CCc1ccc2[nH]c3c(c(=O)c2c1)CN(CC(=O)Nc1ccc(OC)c(Cl)c1)CC3 :: 636
Cc1nc(N2CCOCC2)c2c(C(=O)Nc3cc(Cl)ccc3C)c(C)oc2n1 :: 869
Cc1ccccc1CNC(=O)C1(C)CCN(S(=O)(=O)c2ccc(Br)s2)CC1 :: 1050
CN1CCN(CCCNC(=O)C2CCN(c3nc4cccnc4s3)CC2)CC1 :: 558
Cc1ccc(-c2nc3nc(C)cc(NC(C)C)n3n2)cc1 :: 782
COc1ccc(-c2nc(C)c3c(n2)N(C(C)C)C(=O)C3)cc1 :: 929

For every item in the list below, what is its measured RP-LC retention time?
1. O=C(C1CC1)N1CCc2sc(S(=O)(=O)Nc3ccc(Cl)cc3)cc2C1
2. CCC(Sc1nc2cc(OC)c(OC)cc2c2nc(C)nn12)C(=O)NCc1ccco1 (centres undefined)
3. CC1(C)COc2ccc(NC(=O)CN3C(=O)c4ccccc4C3=O)cc2NC1=O
4. COc1ccc(-c2cn3c(CC(=O)N4CCN(c5ccccc5)CC4)csc3n2)cc1OC
5. COc1ccc(N2C=C(C(=O)N3CCOCC3)S(=O)(=O)c3ccc(Cl)cc32)cc1
6. CCC(NC(=O)c1cn2cc(C)ccc2n1)c1ccc(OC)cc1 (centres undefined)

Key:
1. 853
2. 746
3. 738
4. 730
5. 770
6. 697

For every item in the list below, what is its measured RP-LC retention time?
1. COC(=O)C1=C(N)Oc2cc(C)n(CCN(C)C)c(=O)c2C1c1ccccc1Cl (centres undefined)
2. Cc1ccc2c(=O)c3c([nH]c2c1C)CCN(CC(=O)Nc1cc(F)ccc1F)C3
3. COC(=O)c1ccc(Nc2nc(C)nc3c2CCC3)cc1

Key:
1: 624; 2: 638; 3: 615

====

Please go through the items and note down their RP-LC retention time.
# assay_method_text: gradient 5% acetonitrile 3 min, to 50% in 2 min, to 85% in 15 min, held 3 min, 100 µL/min
# condition_details: column: Zorbax Extend-C18 2.1 x 50 mm; eluents: water / acetonitrile, 0.1% formic acid
The reply should read as a number followed by its unit.

Below, each entry is followed by its recorded RP-LC retention time result.
COc1cc(C(=O)N2CCN(c3cc(C)n4c(C)nnc4n3)CC2)cc(OC)c1OC :: 587 s
CCC(=O)N1CCN(c2nc3c(s2)CC(C(=O)Nc2ccc(Cl)c(C)c2)CC3)CC1 (stereo not given) :: 607 s
COc1ccccc1-c1noc(-c2nnn(Cc3nc(-c4cccc(C)c4)oc3C)c2C)n1 :: 1160 s

For every item in the list below, what is its measured RP-LC retention time?
1. O=C1CC(NC(=O)Nc2ccccc2C(F)(F)F)CN1 (stereo not given)
2. O=C1NCCCCCCN(C(=O)c2ccsc2)[C@H]2CCC[C@@H]12

Key:
["595 s", "733 s"]

For every item in the list below, what is its measured RP-LC retention time?
1. Cc1cccc(-c2ncccc2CNS(=O)(=O)c2cc(F)cc(F)c2)c1
2. Cc1ccc(CNC(=O)N2CCCC(OCc3nc(C)no3)C2)cc1 (stereo not given)
3. O=C(Nc1ccccc1)N1CCC(n2c(-c3ccoc3)nc3cccnc32)C1 (stereo not given)
4. CN(C)c1ccc(NC(=O)c2ccco2)cc1
5. CCOC(=O)c1c(S(=O)(=O)N2CCC(C(=O)NCc3ccco3)CC2)c(C)n(C)c1C
6. CCC(CO)NC(=O)C(=O)NCCC1=CCCCC1 (stereo not given)
7. Cc1ccc2ccc3ccc(C)nc3c2n1

Key:
["776 s", "770 s", "712 s", "532 s", "740 s", "724 s", "589 s"]

For every item in the list below, what is its measured RP-LC retention time?
1. CCn1nccc1-c1cccc(-c2noc(CNS(=O)(=O)c3ccc(Cl)cc3)n2)c1
2. Cc1cccc(C)c1NC(=O)Cn1c(=O)n(Cc2ccc(F)cc2)c(=O)c2nccnc21
3. Cc1oc(-c2[nH]ncc2C(=O)N2CCCC2)cc1S(=O)(=O)NC1CC1
4. Cc1ccc(Nc2c(-c3ccc(Cl)cc3)nc3cc(C)ccn23)cc1
5. CCOCCCNC(=O)N1CCOc2ccc(CN(CC)CC)cc2C1
6. CCCc1sc(Nc2ccccc2OCC)nc1-c1ccc(Cl)c(Cl)c1
7. O=C(NCc1ccccc1C(F)(F)F)c1cn2ccccc2n1

Key:
1: 986 s; 2: 781 s; 3: 620 s; 4: 807 s; 5: 591 s; 6: 1030 s; 7: 757 s

Exercise: # input molecule: Cc1ccccc1CNC(=O)C1CCCN(c2nc3ccsc3c(=O)n2Cc2ccc(F)cc2)C1 (stereo not given) ; wanted: its RP-LC retention time
Key: 1010 s

====

# assay_method_text: gradient 5% acetonitrile 3 min, to 50% in 2 min, to 85% in 15 min, held 3 min, 100 µL/min
# condition_details: column: Zorbax Extend-C18 2.1 x 50 mm; eluents: water / acetonitrile, 0.1% formic acid
Please use Satisfied whenever RP-LC retention time is not below 800 s, and Not satisfied whenever it is.

COc1ccc(C2CC(=O)N(c3ccccc3)C(=O)C2)cc1 :: Satisfied
Cc1nc(Cn2cccc2C(=O)Nc2cc(Cl)ccc2C)no1 :: Satisfied
COC[C@@H](NC(C)=O)C(=O)NCc1ccccc1 :: Not satisfied
Cc1cc2nn(CC(=O)N3CCCC3)c(=O)n2c(Nc2ccc(C)c(F)c2)n1 :: Satisfied
Cc1ccc(NC(=O)C2CCN(C(=O)C3Sc4ccccc4NC3=O)CC2)c(C)c1 (stereo not given) :: Not satisfied

Exercise: Is RP-LC retention time for Cc1ccc(-c2csc(NC(=O)CCc3nc(CSc4nc5ccc(C)cc5[nH]4)no3)n2)cc1 at or above 800 s?
Key: Satisfied

Exercise: Is RP-LC retention time for Cc1cc2[nH]c(C(=O)Nc3cccc(F)c3C)c(CN3CCOCC3)c2s1 at or above 800 s?
Key: Not satisfied

Exercise: Is RP-LC retention time for Cc1cccc(CN2CCn3c(nnc3[C@@H]3C[C@@H](O)CN3Cc3cccnc3)C2)c1 at or above 800 s?
Key: Not satisfied

Exercise: Is RP-LC retention time for OC(CNCc1ccc(-c2cc(Cl)ccc2Cl)o1)c1ccccc1 (stereo not given) at or above 800 s?
Key: Not satisfied

Exercise: Is RP-LC retention time for COc1ccc(NC(=O)Nc2cccc(-c3ccc(N4CCOCC4)nn3)c2)cc1OC at or above 800 s?
Key: Not satisfied

Exercise: Is RP-LC retention time for CCOC(=O)c1ccc(NC(=O)NCc2noc3ccc(C)cc23)cc1 at or above 800 s?
Key: Satisfied

====

# assay_method_text: gradient 5% acetonitrile 3 min, to 50% in 2 min, to 85% in 15 min, held 3 min, 100 µL/min
# condition_details: column: Zorbax Extend-C18 2.1 x 50 mm; eluents: water / acetonitrile, 0.1% formic acid
Please use t whenever RP-LC retention time is not below 700 s, and f whenever it is.

Exercise: Is RP-LC retention time for CCOC(=O)CNc1ncnc2nc[nH]c12 at or above 700 s?
Key: f

Exercise: Is RP-LC retention time for CCOc1cccc(-c2noc(CN3C(=O)COc4cc(C)ccc43)n2)c1 at or above 700 s?
Key: t

Exercise: Is RP-LC retention time for COc1cc(CN(CC2CCCO2)C(=O)c2oc3ccccc3c2C)cc(OC)c1OC (stereo not given) at or above 700 s?
Key: t

Exercise: Is RP-LC retention time for CCn1cc(-c2ccc(C)cc2)cc1C(=O)NCC1CCCO1 (stereo not given) at or above 700 s?
Key: f

Exercise: Is RP-LC retention time for COc1ccc(Cc2nc3nccc(-c4ccccc4)n3n2)cc1 at or above 700 s?
Key: t

Exercise: Is RP-LC retention time for CCc1nc(OCC(=O)Nc2ccccc2F)c2ccccc2n1 at or above 700 s?
Key: t

Exercise: Is RP-LC retention time for COc1cccc(CN2C[C@@H](CO)[C@H](c3nc(C4CC4)no3)C2)n1 at or above 700 s?
Key: f

Exercise: Is RP-LC retention time for CCN(CC)C(=O)c1cnc2nc(C)ccc2c1Nc1ccc(S(N)(=O)=O)cc1 at or above 700 s?
Key: f
